Assay: growth inhibition of DIPG glioma cells, dose response, cell-based, SU-DIPG-IV, MIPE4.0, CellTiter-Glo, qHTS (AID 1347063);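 note: compound exposure lasted 48 hours before the viability readout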
Conditions: SU-DIPG-IV viability, CellTiter-Glo ATP luminescence
Records with an inconclusive call do not appear. The source made the active and inactive calls. No cut-off is given here; in the data, nearly all actives have AC50 up to about 30 µM.
Form entry, call: pick from active, inactive

[
  {
    "COMPOUND": "CC(C)(S)[C@@H](N)C(=O)O",
    "LABEL": "inactive"
  },
  {
    "COMPOUND": "CN(C)C(=O)C(CCN1CCC(O)(c2ccc(Cl)cc2)CC1)(c1ccccc1)c1ccccc1",
    "LABEL": "inactive"
  },
  {
    "COMPOUND": "CC[C@H]1OC(=O)[C@H](C)[C@@H](O[C@H]2C[C@@](C)(OC)[C@@H](O)[C@H](C)O2)[C@H](C)[C@@H](O[C@@H]2O[C@H](C)C[C@H](N(C)C)[C@H]2O)[C@](C)(O)C[C@@H](C)/C(=N\\OCOCCOC)[C@H](C)[C@@H](O)[C@]1(C)O",
    "LABEL": "inactive"
  },
  {
    "COMPOUND": "C#Cc1cccc(Nc2ncnc3cc(OCCOC)c(OCCOC)cc23)c1",
    "LABEL": "active"
  },
  {
    "COMPOUND": "N=c1nc(N2CCCCC2)cc(N)n1O",
    "LABEL": "inactive"
  },
  {
    "COMPOUND": "Cc1ccccc1C(=O)Nc1ccc(C(=O)N2CCCC(O)c3cc(Cl)ccc32)c(C)c1 (stereo not drawn)",
    "LABEL": "inactive"
  },
  {
    "COMPOUND": "O=C1Cc2cc(CCN3CCN(c4nsc5ccccc45)CC3)c(Cl)cc2N1",
    "LABEL": "active"
  }
]

Exam item: // return assay outcome for "O=c1c(-c2ccc(O)cc2)coc2cc(O)ccc12"
Marked response: inactive
